From: patent US20230265151A1

Test System: T1, human glucagon receptor (human, UniProt P47871 26-477)
T1 construct: whole, on cells; also called hGCGR; hGcgR
T1 sequence (P47871 26-477): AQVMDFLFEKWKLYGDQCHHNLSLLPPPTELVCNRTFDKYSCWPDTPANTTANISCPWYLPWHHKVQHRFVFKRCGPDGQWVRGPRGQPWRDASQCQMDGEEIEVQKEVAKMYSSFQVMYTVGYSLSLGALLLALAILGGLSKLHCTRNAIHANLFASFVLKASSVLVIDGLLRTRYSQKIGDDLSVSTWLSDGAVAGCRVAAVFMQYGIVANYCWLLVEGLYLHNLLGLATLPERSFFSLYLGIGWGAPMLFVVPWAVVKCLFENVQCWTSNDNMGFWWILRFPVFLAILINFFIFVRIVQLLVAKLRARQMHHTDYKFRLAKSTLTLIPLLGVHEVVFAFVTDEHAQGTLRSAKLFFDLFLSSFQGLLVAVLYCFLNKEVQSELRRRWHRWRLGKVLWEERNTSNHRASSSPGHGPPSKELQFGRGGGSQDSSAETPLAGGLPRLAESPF
Method Description: SPA competition vs [125I]-Gcg, hGcgR membranes
pKi: −log10 of the molar value.
Rule: pKi under 7 gives NOT MET, otherwise MET.

{"Binder": "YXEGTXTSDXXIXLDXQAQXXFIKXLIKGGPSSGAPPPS (Aib2, αMeF(2F)6, 4Pal10, Aib11, αMeL13, Orn16, Aib20, Orn21, K24(Z1), αMeY25, K28(Z1), C-term NH2; Z1=Ahx-AEEA-(γ-Glu)-CO-(CH2)12-CO2 (so in the source))", "Assigned Category": "NOT MET"}
{"Binder": "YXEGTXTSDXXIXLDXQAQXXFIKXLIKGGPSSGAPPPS (Aib2, αMeF(2F)6, 4Pal10, Aib11, αMeL13, Orn16, Aib20, Orn21, K24(Z1), αMeY25, K28(Z1), C-term NH2; Z1=Ahx-AEEA-(γ-Glu)-(10-(4-carboxyphenoxy)decanoyl))", "Assigned Category": "MET"}
{"Binder": "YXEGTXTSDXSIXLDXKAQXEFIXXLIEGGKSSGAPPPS (Aib2, αMeF(2F)6, Bip10, αMeL13, Orn16, K17(Z1), Aib20, D-Glu24, αMeY25, K31(Z1), C-term NH2; Z1=AEEA2-(γ-Glu)-CO-(CH2)12-CO2H)", "Assigned Category": "NOT MET"}
{"Binder": "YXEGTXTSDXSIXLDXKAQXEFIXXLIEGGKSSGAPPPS (Aib2, αMeF(2F)6, 4Pal10, αMeL13, Orn16, K17(Z1), Aib20, D-Glu24, αMeY25, K31(Z1), C-term NH2; Z1=AEEA2-(γ-Glu)-CO-(CH2)14-CH3)", "Assigned Category": "MET"}
{"Binder": "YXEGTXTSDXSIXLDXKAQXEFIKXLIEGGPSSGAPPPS (Aib2, αMeF(2F)6, 4Pal10, αMeL13, Orn16, K17(Z1), Aib20, K24(Z1), αMeY25, C-term NH2; Z1=AEEA2-(γ-Glu)-CO-(CH2)12-CO2H)", "Assigned Category": "NOT MET"}
{"Binder": "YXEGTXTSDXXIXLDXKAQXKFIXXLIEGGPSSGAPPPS (Aib2, αMeF(2F)6, 4Pal10, Aib11, αMeL13, Orn16, K17(Z1), Aib20, K21(Z1), D-Glu24, αMeY25, C-term NH2; Z1=AEEA3-(γ-Glu)-CO-(CH2)10-CH3)", "Assigned Category": "MET"}
{"Binder": "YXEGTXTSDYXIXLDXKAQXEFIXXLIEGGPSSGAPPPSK (Aib2, αMeF(2F)6, Aib11, αMeL13, Orn16, K17(Z1), Aib20, D-Glu24, αMeY25, K40(Z1), C-term NH2; Z1=AEEA2-(γ-Glu)-CO-(CH2)10-CH3)", "Assigned Category": "MET"}
{"Binder": "YXEGTXTSDXXIXLDXKAQXTFIXXLIKGGPSSGAPPPS (Aib2, αMeF(2F)6, 4Pal10, Aib11, αMeL13, Orn16, K17(Z1), Aib20, D-Glu24, αMeY25, K28(Z1), C-term NH2; Z1=AEEA2-(γ-Glu)-CO-(CH2)10-CH3, T at position 21)", "Assigned Category": "MET"}

Is pKi at least 7? Consider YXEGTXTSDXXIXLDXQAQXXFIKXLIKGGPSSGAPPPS (Aib2, αMeF(2F)6, 4Pal10, Aib11, αMeL13, Orn16, Aib20, Orn21, K24(Z1), αMeY25, K28(Z1), C-term NH2; Z1=AEEA-Ahx-(γ-Glu)-CO-(CH2)12-CO2 (so in the source)) NOT MET

Is pKi at least 7? Consider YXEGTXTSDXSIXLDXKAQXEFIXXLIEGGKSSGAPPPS (Aib2, αMeF(2F)6, OMeY10, αMeL13, Orn16, K17(Z1), Aib20, D-Glu24, αMeY25, K31(Z1), C-term NH2; Z1=AEEA2-(γ-Glu)-CO-(CH2)12-CO2H) NOT MET

Is pKi at least 7? Consider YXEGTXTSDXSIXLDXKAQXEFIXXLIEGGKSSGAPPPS (Aib2, αMeF(2F)6, 4Pal10, αMeL13, Orn16, K17(Z1), Aib20, D-Glu24, αMeY25, K31(Z1), C-term NH2; Z1=AEEA2-CO-(CH2)12-CO2H) NOT MET
